System: NALM-16;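 note: ALL cell lines in 384-well plates, five doses spanning 10,000-fold, each plate scaled between vehicle and 100 µmol/L benzalkonium chloride controls, sDSS an adapted area-under-curve metric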
Assay: selective drug sensitivity score (sDSS, relative to normal bone marrow) (sDSS (score)); higher = more potent and effective on the cell line relative to normal bone marrow cells
Conditions: 72 h
selective drug sensitivity score reference
Experimental readout: selective drug sensitivity score

>  <Compound>
COc1cc(N2CCC(N3CCN(C)CC3)CC2)ccc1Nc1ncnc(Nc2ccccc2S(=O)(=O)C(C)C)n1 [ASP3026] (top concentration 10000 nM)

>  <Experimental readout>
selective drug sensitivity score

>  <Recorded measurement>
-2.64

$$$$
>  <Compound>
O=C1c2c(O)ccc(O)c2C(=O)c2c(NCCNCCO)ccc(NCCNCCO)c21 [Mitoxantrone] (top concentration 1000 nM)

>  <Experimental readout>
selective drug sensitivity score

>  <Recorded measurement>
-5.06

$$$$
>  <Compound>
Nc1nc(Cl)nc2c1ncn2[C@@H]1O[C@H](CO)[C@@H](O)[C@@H]1F [Clofarabine] (top concentration 10000 nM)

>  <Experimental readout>
selective drug sensitivity score

>  <Recorded measurement>
-5.6

$$$$
>  <Compound>
Cc1cc(F)c(C(=O)Nc2cccc(-c3nncn3C(C)C)n2)cc1-n1cnc(C2CC2)c1 [Selonsertib] (top concentration 1000 nM)

>  <Experimental readout>
selective drug sensitivity score

>  <Recorded measurement>
0

$$$$
>  <Compound>
O=C(Nc1ccncc1)C(=O)c1cn(Cc2ccc(Cl)cc2)c2ccccc12 [Indibulin] (top concentration 10000 nM)

>  <Experimental readout>
selective drug sensitivity score

>  <Recorded measurement>
9.34

$$$$
>  <Compound>
CN1CCN(c2nc(C3=C(c4c[nH]c5ccccc45)C(=O)NC3=O)c3ccccc3n2)CC1 [Sotrastaurin] (top concentration 10000 nM)

>  <Experimental readout>
selective drug sensitivity score

>  <Recorded measurement>
1.8

$$$$
